Assign apparent KD of MS2 coat protein to each entry below.
Tested on: MS2 coat protein
Assay Protocol: apparent KD of MS2 coat protein; designed switch direction (-1 OFF switch, 1 ON switch): -1; higher = weaker reporter binding
Study Conditions: Eterna round: R95; input ligand: none
The reply should contain only the number, in nM.

Task item: Recorded apparent KD of MS2 coat protein of UUUUAGAGAGGAUAUAUAAUGUGAAACAUGAGGAUCACCCAUGUAAUAUUAUGGAUGUAAAUAGAAGGCUCAAUUA [Mat - Exclusion 5 - JL mod - D13] (puzzle: Exclusion 5) , please.
Reply: 26.3

Task item: Next: CAGUACUGCAGGCUUUGGGACAUGAGGAUCACCCAUGUUCGUCUUAUUGAUCUAGGUACGCUGACGUACCUAGAUCU [JL-sv1-2.14 Brourd mod] (puzzle: Sensor v3, turn-off variant 1)
Reply: 17.6

Task item: What do you get for GCACGGUAAGUGAGGAUAUACCUCUGGAUACAGAGGUAGAAGGCACAUGAGGAUCACCCAUGUCUAUACCGUGC [Fiskers BMX 4 - 81] (puzzle: Brourd's mod of Exclusion 4) ?
Reply: 13.8

Task item: Next sequence up: GCCAGAGCAGGAUAUUCAGUAUCACACAUGAGGAUCACCCAUGUCCACGGAAACGUGGAGGGAGAAGGGCUCUGGC [Mat - Exclusion 5 - Eli mod - D96] (puzzle: Exclusion 5)
Reply: 157

Task item: Now give it for CUAGCUUCGGCUAGUACAAGCUUUUUGCUCGUCUUAUUAACAUGAGGAUCACCCAUGUACAAGAGACCUCAUGUAUU [Sensor v3 - turn-off variant 2 - 10] (puzzle: Sensor v3, turn-off variant 2) too.
Reply: 249

----------
Test system: MS2 coat protein
Assay Protocol: apparent KD of MS2 coat protein; designed switch direction (-1 OFF switch, 1 ON switch): 1; higher = weaker reporter binding
Study Conditions: input ligand: none
Assignment: determine reported apparent KD of MS2 coat protein for the given sequences.
Just the number in nM, nothing appended.

Task item: Could you tell me which apparent KD of MS2 coat protein is on file for UGGUACAUGGGAGGAUAUCAUGUAGAAACAUGAGGAUCACCCAUGUAGAUGGCCGGUAACCGGGAUGAGAAGGCCCAUGUACCU [JL SSNG1 3.64] (Eterna round: R96, puzzle: Same State NG 2) ?
Reply: 30.3

Task item: Next sequence up: ACGCUAAAUGGAGGAUAUGGAGCCUUAUUGGCUCCAGAAGGUCAAAACAUGAGGAUCACCCAUGUGCGGUGGUCUAAUGACCAC [Eli NG1ss - 47] (Eterna round: R96, puzzle: Same State NG 1)
Reply: 169

Task item: Again, but for GGAGCCGGCACUGAGGAUAUUCAUAUUAAAACAUGAGGAUCACCCAUGUAGGCCAGAAGGCCUUGGGAGAAGGCAGGUCGACUCG [Diqureveri] (Eterna round: R96, puzzle: Same State 2)
Reply: 209

----------
System: MS2 coat protein
Assay Protocol: apparent KD of MS2 coat protein, switch OFF state (with FMN for OFF switches, without FMN for ON switches); designed switch direction (-1 OFF switch, 1 ON switch): 1; higher = weaker reporter binding
Study Conditions: FMN input: 0 or 200 uM; Eterna round: R93 (includes R88 designs)
Experimental Endpoint: apparent KD of MS2 coat protein (nM)
Numbers only here, please. The scale is nM.

Task item: Field: apparent KD of MS2 coat protein (MS2 coat protein). Entry: AAAUAAAGGACUGAGGAUAUACCACAUGAAACAUGAGGAUCACCCAUGUUGAAAAACAAAGGGUGGUAGAAGGUAGUCCACAAAC [Same State 2.5a ( so lets mod hyphema)]
Reply: 29.3

Task item: What do you have for UGAUUGAGAUUGUAGGAUAUUGGAAAAGCCACAUGAGGAUCACCCAUGUCAAAAAAAAAAAAAAACAAGAAGGGCGGUUUUAGUUA [Same State 2] ?
Reply: 64.5

Task item: Same question, GAAGACAUAGUUCAGGAUAUGGGAAUAGUCACAUGAGGAUCACCCAUGUGCAUUUAUAUGCGCGCUCAGAAGGGAGGUAGAUAAU [Mat - Same state - Malcolm Mod - D118] this time
Reply: 27

Taken from the supplement of paper PMC9170038.
